- MEASUREMENT_DESCRIPTION: Aqueous solubility of Compound B
- Type: physicochemical
- TEST_CONTEXT: simulated gastric fluid; pH 2.1, 0.01N HCl

MOL	solubility / µg/mL
Cl.NC1(c2ccc(-c3nc4ccn5c(=O)[nH]nc5c4cc3-c3ccccc3)cc2)CCC1	4230

----------
- MEASUREMENT_DESCRIPTION: Aqueous solubility of Compound B
- Format: physicochemical
- TEST_CONTEXT: un-buffered aqueous medium, water; pH 4.1, Un-buffered

MOL	solubility
Cl.NC1(c2ccc(-c3nc4ccn5c(=O)[nH]nc5c4cc3-c3ccccc3)cc2)CCC1	7460 µg/mL
